TEST TARGET: HCV NS3 helicase NS3h_1b(con1) (Hepatitis C virus genotype 1b, UniProt Q9WMX2)
Construct: truncated C-terminally His-tagged NS3 proteins lacking the N-terminal protease, called NS3h; His-tag (C); made in house
Sequence (Q9WMX2 1192-1657): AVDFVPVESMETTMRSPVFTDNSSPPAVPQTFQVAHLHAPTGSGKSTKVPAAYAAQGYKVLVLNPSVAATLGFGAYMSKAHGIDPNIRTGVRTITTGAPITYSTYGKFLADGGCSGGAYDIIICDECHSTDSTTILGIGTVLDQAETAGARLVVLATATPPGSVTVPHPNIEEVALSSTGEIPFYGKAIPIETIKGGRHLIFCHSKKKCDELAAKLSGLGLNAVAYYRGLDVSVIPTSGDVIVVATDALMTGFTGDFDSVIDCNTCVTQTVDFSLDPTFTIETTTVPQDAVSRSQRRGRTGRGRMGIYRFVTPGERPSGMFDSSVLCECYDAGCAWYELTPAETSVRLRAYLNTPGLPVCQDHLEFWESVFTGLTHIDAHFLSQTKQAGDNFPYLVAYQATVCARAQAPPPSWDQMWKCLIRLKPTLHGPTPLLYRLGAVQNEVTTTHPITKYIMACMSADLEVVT
PROCEDURE DETAILS: MBHA screen of NCI mechanistic set library at 20 μM (percent inhibition, compound interference)
Type: biochemical
ASSAY SETUP: compounds at 20 μM, MBHA with DNA substrate; assay interference calculated with Equation 2
Residues, ends and D or L forms follow the SMILES beside them. *: point of attachment. Cbz = O=C(OCc1ccccc1)*; CH2Cl = ClC*
READOUT LABEL: Int.* (Ratio) (Interference)
Numeric only. Scale: Ratio

Field: example entries. Status: answers known.
COc1cc(/C=C(\OC(C)=O)c2ccc3c(c2)OCO3)cc(OC)c1OC [Compound 647363] : 0.93
CC(C)(C)c1ccc(O)c(CN(Cc2cc(C(C)(C)C)ccc2O)C2CCCCC2)c1 [Compound 48151] : 0.98

Need Int.* (Ratio) (Interference), item CC(C)CC(NC(=O)OCc1ccccc1)C(=O)NC(Cc1ccccc1)C(=O)CCl (stereo not drawn) [Compound 173904] (Cbz-Leu-Phe-CH2Cl; configuration not given here) 1.09

Would you kindly repeat that for O=C1C(C(O)(C(F)(F)F)C(F)(F)F)CCC1C(O)(C(F)(F)F)C(F)(F)F (stereo not shown) [Compound 664181] ? 0.84

* * *

TEST TARGET: E. coli SSB-Cy5-dT15 complex (Escherichia coli)
Construct: purchased Promega
Sequence (P0AGE0 2-178, one chain of several): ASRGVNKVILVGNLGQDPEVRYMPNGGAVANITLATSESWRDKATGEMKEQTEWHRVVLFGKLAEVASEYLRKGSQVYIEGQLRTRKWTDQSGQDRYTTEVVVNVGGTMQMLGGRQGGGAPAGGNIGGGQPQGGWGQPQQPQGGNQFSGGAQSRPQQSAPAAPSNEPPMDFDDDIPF
PROCEDURE DETAILS: Escherichia coli SSB Cy5-dT15 binding assay (fluorescence polarization)
ASSAY SETUP: read-out: SSB % Displaced @ 100 μM
READOUT LABEL: inhibition at 100 µM (%)
Numeric only. Scale: %

Field: example entries. Status: answers known.
Cc1ccc2nc(-c3ccc(NC(=O)c4ccc(NC(=S)Nc5ccccc5)cc4)cc3)sc2c1S(=O)(=O)O.N : 93
Cc1ccc2nc(-c3ccc4nc(-c5ccc(NC(=O)c6ccc(N)cc6)cc5)sc4c3)sc2c1S(=O)(=O)O : 99
Cc1ccc2nc(-c3ccc4nc(-c5ccc(NC(=O)c6ccncc6)cc5)sc4c3)sc2c1S(=O)(=O)O : 63
CC(=O)Nc1ccc(-c2nc3ccc(-c4nc5ccc(C)c(S(=O)(=O)O)c5s4)cc3s2)cc1 : 89
Cc1ccc2nc(-c3ccc(NC(=O)c4ccc(NC(=O)Nc5ccccc5)cc4)cc3)sc2c1S(=O)(=O)O.N : 96
Cc1ccc2nc(-c3ccc4nc(-c5ccc(NC(=O)Nc6ccc(Cl)cc6)cc5)sc4c3)sc2c1S(=O)(=O)O : 94
Cc1ccc2nc(-c3ccc(NC(=O)c4ccc(NC(=O)OCC5c6ccccc6-c6ccccc65)cc4)cc3)sc2c1S(=O)(=O)O.N : 93
Cc1ccc2nc(-c3ccc4nc(-c5ccc(NC(=O)Nc6ccc(C(F)(F)F)cc6)cc5)sc4c3)sc2c1S(=O)(=O)O.N : 91
Cc1ccc2nc(-c3ccc4nc(-c5ccc(NC(=O)c6cc(C(F)(F)F)cc(C(F)(F)F)c6)cc5)sc4c3)sc2c1S(=O)(=O)O : 73
Cc1ccc2nc(-c3ccc4nc(-c5ccc(NC(=O)c6cc(F)ccc6C(F)(F)F)cc5)sc4c3)sc2c1S(=O)(=O)O : 95

Attention now shifts to the item below.
Need inhibition at 100 µM, item Cc1ccc2nc(-c3ccc4nc(-c5ccc(NC(=O)c6ccc(Br)cc6)cc5)sc4c3)sc2c1S(=O)(=O)O 91

* * *

TEST TARGET: scNS4A-NS3p (UniProt P26663)
Construct: fused on or other part: NS4A cofactor peptide, from the same polyprotein, fused to the NS3 protease fragment
Sequence (P26663 1027-1657): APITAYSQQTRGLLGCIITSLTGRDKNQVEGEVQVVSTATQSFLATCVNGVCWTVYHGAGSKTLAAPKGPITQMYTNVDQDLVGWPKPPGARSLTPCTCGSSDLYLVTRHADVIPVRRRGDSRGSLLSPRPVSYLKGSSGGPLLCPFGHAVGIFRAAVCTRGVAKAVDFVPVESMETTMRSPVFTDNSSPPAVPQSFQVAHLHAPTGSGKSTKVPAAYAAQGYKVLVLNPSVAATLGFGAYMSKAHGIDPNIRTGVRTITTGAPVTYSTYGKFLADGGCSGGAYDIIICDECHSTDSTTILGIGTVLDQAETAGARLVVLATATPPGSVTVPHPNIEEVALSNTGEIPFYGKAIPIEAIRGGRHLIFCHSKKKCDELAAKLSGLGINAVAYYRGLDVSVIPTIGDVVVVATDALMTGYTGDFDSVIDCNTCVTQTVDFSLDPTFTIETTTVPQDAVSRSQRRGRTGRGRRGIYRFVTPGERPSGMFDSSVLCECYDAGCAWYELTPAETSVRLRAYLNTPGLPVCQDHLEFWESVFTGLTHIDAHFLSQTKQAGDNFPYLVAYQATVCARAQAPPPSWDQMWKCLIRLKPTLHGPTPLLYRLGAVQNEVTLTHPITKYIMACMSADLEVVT
PROCEDURE DETAILS: NS3 protease assay (ENZOLYTE 520), protease fragment
Type: biochemical, hepatitis C virus genotype 1b
ASSAY SETUP: read-out: Protease ScNS4a-NS3p IC50 (μM) ± SD; one set of assays
READOUT LABEL: IC50 (µM)
Numeric only. Scale: µM

Field: example entries. Status: answers known.
Cc1ccc2nc(-c3ccc4nc(-c5ccc(NC(=O)c6cccc(Cl)c6)cc5)sc4c3)sc2c1S(=O)(=O)O : 24
Cc1ccc2nc(-c3ccc4nc(-c5ccc(NC(=O)c6ccc(C(F)(F)F)cc6)cc5)sc4c3)sc2c1S(=O)(=O)O : 7
Cc1ccc2nc(-c3ccc4nc(-c5ccc(NC(=O)c6ccc(Cl)c(Cl)c6)cc5)sc4c3)sc2c1S(=O)(=O)O : 6.4
Cc1ccc2nc(-c3ccc4nc(-c5ccc(NC(=O)c6cc(C(F)(F)F)cc(C(F)(F)F)c6)cc5)sc4c3)sc2c1S(=O)(=O)O : 7.6
Cc1ccc2nc(-c3ccc4nc(-c5ccc(NC(=O)c6ccc(C(C)(C)C)cc6)cc5)sc4c3)sc2c1S(=O)(=O)O : 93

Need IC50, item Cc1ccc2nc(-c3ccc4nc(-c5ccc(NC(=O)c6ccc(Br)cc6)cc5)sc4c3)sc2c1S(=O)(=O)O 6.5

Would you kindly repeat that for Cc1ccc2nc(-c3ccc4nc(-c5ccc6nc(-c7ccc8nc(-c9ccc(N)cc9)sc8c7)sc6c5)sc4c3)sc2c1S(=O)(=O)O ? 4.9

Would you kindly repeat that for Cc1ccc2nc(-c3ccc4nc(-c5ccc(NC(=O)c6ccc7nc(-c8ccc(N)cc8)sc7c6)cc5)sc4c3)sc2c1S(=O)(=O)O ? 20

* * *

TEST TARGET: HCV NS3 helicase NS3h_1b(con1) (Hepatitis C virus genotype 1b)
Construct: truncated C-terminally His-tagged NS3 proteins lacking the N-terminal protease, called NS3h; His-tag (C); made in house
PROCEDURE DETAILS: MBHA screen of NCI mechanistic set library at 20 μM (percent inhibition, compound interference)
Format: biochemical
ASSAY SETUP: compounds at 20 μM, MBHA with a DNA substrate; calculated from Equation 1
READOUT LABEL: Inh. (%) (Inhibition)
Numeric only. Scale: %

Field: example entries. Status: answers known.
CCNC(=O)OCc1c(COC(=O)NCC)c(-c2ccc(Cl)c(Cl)c2)n2c1CCC2 [Compound 267700] : −24.0
O=C1c2ccccc2C(=O)c2nc(-c3ccccc3)c(-c3ccccc3)nc21 [Compound 629713] : −20.3
CC(=O)O[C@H]1C[C@H](O[C@H]2[C@@H](O)C[C@H](O[C@H]3[C@@H](O)C[C@H](O[C@H]4CC[C@@]5(C)[C@H](CC[C@@H]6[C@@H]5CC[C@]5(C)[C@@H](C7=CC(=O)OC7)CC[C@]65O)C4)O[C@@H]3C)O[C@@H]2C)OC(C)[C@H]1O[C@@H]1O[C@H](CO)[C@@H](O)[C@H](O)[C@H]1O (some centres unmarked) [Compound 7532] : −3.4
NC1(C(=O)O)CCCC1 [Compound 1026] : 9.0
Oc1cc(-n2cccn2)c(O)cc1-n1cccn1 [Compound 645987] : −7.0

Request - read-out Inh. (%) (Inhibition) | tested on HCV NS3 helicase NS3h_1b(con1) (Hepatitis C virus genotype 1b) | compound CC1=C(N2CC2)C(=O)c2nc3n(c2C1=O)CCC3OC(=O)CCl (centres unmarked) [Compound 651080] −4.4

Would you kindly repeat that for C=C(C)[C@@H]1CC[C@]2(C(=O)O)CC[C@]3(C)[C@H](CC[C@@H]4[C@@]5(C)CC[C@H](O)C(C)(C)[C@@H]5CC[C@]43C)[C@@H]12 [Compound 113090] ? −29.5

Would you kindly repeat that for O=C(c1ccccc1)C1OC12C(=O)Nc1c(Cl)cc(Cl)cc12 (centres unmarked) [Compound 635306] ? −6.8

* * *

TEST TARGET: HCV NS3 helicase NS3h_1b(con1) (Hepatitis C virus genotype 1b)
Construct: truncated C-terminally His-tagged NS3 proteins lacking the N-terminal protease, called NS3h; His-tag (C); made in house
PROCEDURE DETAILS: MBHA screen of NCI mechanistic set library at 20 μM (percent inhibition, compound interference)
Type: biochemical
ASSAY SETUP: compounds at 20 μM, MBHA with DNA substrate; assay interference calculated with Equation 2
Known Int.* (Ratio) (Interference) of a selection of compounds
Numeric only. Scale: Ratio

O=C1NC(=O)[C@H]2[C@H]3C=C[C@@H]([C@@H]12)[C@@H]1[C@H]2C(=O)NC(=O)[C@H]2[C@H]31 : 1.10

Request - read-out Int.* (Ratio) (Interference) | tested on HCV NS3 helicase NS3h_1b(con1) (Hepatitis C virus genotype 1b) | compound C[n+]1ccc(-c2cc[n+](C)cc2)cc1.[Cl-].[Cl-] 1.18

Would you kindly repeat that for CCCCCCCCCCCCCCCCCCOCC(COP(=O)([O-])OCC[N+](C)(C)C)OC (stereo not drawn) ? 0.85

Would you kindly repeat that for O=S1(=O)OCCOS(=O)(=O)C1Cc1ccccc1 ? 0.99

Would you kindly repeat that for CC(=O)N=C1N(/C=C2\C(=O)Oc3ccccc3C2=O)C(=O)/C(=C/c2ccccc2Cl)N1C ? 0.95

Would you kindly repeat that for Br.CCN(CC)CC(C)(C)C(=O)/C=C/c1ccc(C)cc1 ? 0.90

Would you kindly repeat that for CO[C@@H](/C(C)=C/C=C/C(C)=C/c1coc(C)n1)[C@@H](C)[C@@H]1C[C@H](O)[C@@]2(C)O[C@@H]2/C=C/[C@@H](C)[C@H]2C[C@H](CC(=O)O2)C[C@@H]2O[C@H]2C(=O)O1 ? 0.98

Value source: patent US9464064B2
